Reference source for all entries: patent US20170298096A1

biological target: T1, His-tagged P3028 (human, not fully specified); assay: chip ELISA
T1 construct: the tag is put first after 'PGE73=His-tag-P3028'; also called PGE73; not shown: His-tag
T1 peptide: {His‑tag}-VFDEFKPLVEEPQNLIK
No end group written: not given here.

binder: KKLDTFFVKLSLYTER [P28R F13Y]
ELISA signal: 291
--
binder: KKLDTFFVKLSAFTER [P28R L12A]
ELISA signal: 462
--
binder: KKLDTFFVKTSLFTER [P28R L10T]
ELISA signal: 399
--
binder: KKLDTFFVKLSLFWER [P28R T14W]
ELISA signal: 374
--
binder: KKLDTFFVKLSEFTER [P28R L12E]
ELISA signal: 82
--
binder: KKLDTFFVKLSLFTEK [P28R R16K]
ELISA signal: 291
--
binder: KKLDTFFVKLSLFYER [P28R T14Y]
ELISA signal: 270
